Data provenance: PubChem BioAssay

ASSAY EXPLANATION: S. cerevisiae growth modulation with rapamycin, primary screen, strain BY4716, OD600, 96 h (AID 1091); further: test concentration not given here
EXPERIMENTAL CONTEXT: higher = more signal, called active from +8 up or from −8 down
Activity calls are given as the source filed them.
So I've got a bunch of molecules here, and I need their z-score values.

Reference set (10 entries):
Cc1cc2c(nc1C)CCCCN2CC(C)ON=C[C@@H](C)[C@H](OCc1ccccc1)C(C)C (some centres undefined) | 0.365 (inactive)
CC(CCN1CCCCc2nc(C)c(C)cc21)=NO[C@H](C)c1cn([C@H](CO)Cc2ccccc2)nn1 | -0.382 (inactive)
COCOc1ccc(Br)cc1C(=O)[C@@H]1O[C@H]1c1cccc(OC)c1 | -0.822 (inactive)
CCOC(=O)[C@H](Cc1ccccc1)NC(=O)CCC1CC(OC(=O)NCc2ccc3c(c2)OCO3)CC2(CCCC(COC(=O)NCCc3ccccc3OC)O2)O1 (some centres undefined) | 1.52 (inactive)
COc1cccc([C@H]2Oc3ccc(OC)cc3C(=NO[C@H](C)c3cn([C@H](CO)Cc4ccccc4)nn3)[C@@H]2O)c1 | -1.21 (inactive)
Cc1ccc(S(=O)(=O)NC(CCc2ccccc2)CC(=O)C(C)(C)C)cc1 (centres undefined) | 0.269 (inactive)
CC(C)(C)N1C(=O)[C@H]2[C@H]3[C@H](O)[C@H](O)CC(=NO[C@@H]4O[C@H](CO)[C@@H](O)[C@H](O)[C@H]4O)[C@H]3CC[C@H]2C1=O | -0.235 (inactive)
O=C1[C@H]2[C@H]3[C@H](O)[C@H](O)CC(=NOC[C@@H](O)COCc4ccco4)[C@H]3CC[C@H]2C(=O)N1Cc1ccccc1 | -1.11 (inactive)
CC(C)[C@@H](OCc1ccccc1)[C@H](C)C=NOC[C@@H](O)COCc1ccco1 | -1.15 (inactive)
CCCCC#C[C@@H]1C=C[C@H](Oc2ccc(C(=O)OC)cc2)[C@@H](COC(=O)OCC)O1 | -0.611 (inactive)

Please report z-score for every entry that follows.
1. COC(=O)CC=C[C@@H](C)[C@@H](C=NOC[C@H]1O[C@H](c2ccccc2)C=C[C@@H]1Oc1ccc(OC)cc1)NS(=O)(=O)c1ccc(C)cc1
2. CC(C)C[C@H](NC(=O)CCC1CC(OC(=O)NCc2cccc3ccccc23)CC2(CCCC(COC(=O)NCc3ccccc3)O2)O1)C(=O)NCC(c1ccccc1)c1ccccc1 (some centres undefined)

Marked response:
-0.382 (inactive)
-0.576 (inactive)

Please report z-score for every entry that follows.
1. COC(=O)CC=C[C@@H](C)[C@@H](C=NO[C@@H]1O[C@H](COC(C)=O)[C@@H](OC(C)=O)[C@H](OC(C)=O)[C@H]1OC(C)=O)NS(=O)(=O)c1ccc(C)cc1
2. COC(=O)CC=C[C@@H](C)[C@@H](C=NOC(C)CN1CCCc2nc(C)c(C)cc21)OC (some centres undefined)
3. CC(CCC(=O)OC[C@H]1O[C@H](C#Cc2ccccc2)C=C[C@@H]1Oc1ccc(C)cc1)=NO[C@H](C)c1cn([C@H](CO)Cc2ccccc2)nn1
4. CCN1C(=O)[C@H]2[C@H]3[C@H](O)[C@H](O)CC(=NOCC(C)C)[C@@H]3CC[C@H]2C1=O
5. Cc1ccc(S(=O)(=O)N[C@@H]2COC(=O)[C@@H](C)COC(=O)CC=C[C@H]2C)cc1
6. CCOC(=O)C1=NO[C@]2(C=C(Br)C3(OCCCO3)[C@H]3O[C@H]32)C1

Marked response:
1: -0.615 (inactive); 2: 0.0448 (inactive); 3: 1.31 (inactive); 4: -0.242 (inactive); 5: 1.02 (inactive); 6: -0.155 (inactive)
